Entries annotated with measured EC50
target: Stimulator of interferon genes protein (Homo sapiens, UniProt Q86WV6); experiment: Activation of wild-type human STING expressed in digitonin treated human THP1-Dual cells co-expressing IRF3-activated ISRE assessed as IRF3 reporter activation measured after 30 mins by luciferase reporter gene assay; format: cell-based
Sequence (Q86WV6 whole entry): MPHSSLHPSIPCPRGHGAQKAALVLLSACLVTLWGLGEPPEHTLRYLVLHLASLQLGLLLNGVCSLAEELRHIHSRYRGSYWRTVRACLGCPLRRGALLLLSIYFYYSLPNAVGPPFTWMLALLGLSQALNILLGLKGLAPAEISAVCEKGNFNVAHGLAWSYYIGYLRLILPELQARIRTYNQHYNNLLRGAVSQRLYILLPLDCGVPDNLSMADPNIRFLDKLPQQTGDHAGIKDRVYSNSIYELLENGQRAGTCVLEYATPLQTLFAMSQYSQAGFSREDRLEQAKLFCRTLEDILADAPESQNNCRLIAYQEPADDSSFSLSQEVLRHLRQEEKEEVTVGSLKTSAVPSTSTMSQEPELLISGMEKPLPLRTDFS
The figure you give is taken to be in nM; do not add the unit.

For orientation, consider the following solved cases.
For the molecule "CC(C)(C)C(=O)OCS[P@@]1(=O)OC[C@H]2O[C@@H](n3cnc4c(N)ncnc43)[C@H](F)[C@@H]2O[P@@](=O)(SCOC(=O)C(C)(C)C)OC[C@H]2O[C@@H](n3cnc4c(N)ncnc43)[C@H](F)[C@@H]2O1" , what EC50 is on record?
80

What value of measured EC50 is listed for "Nc1ncnc2c1ncn2[C@@H]1O[C@@H]2CO[P@@](=O)(OCOC(=O)c3ccccc3)O[C@H]3[C@@H](F)[C@H](n4cnc5c(N)ncnc54)O[C@@H]3CO[P@](=O)(OCOC(=O)c3ccccc3)O[C@H]2[C@H]1F" ?
330

# input molecule: "CCC(CC)C(=O)OCO[P@@]1(=O)OC[C@H]2O[C@@H](n3cnc4c(N)ncnc43)[C@H](F)[C@@H]2O[P@](=O)(OCOC(=O)C(CC)CC)OC[C@H]2O[C@@H](n3cnc4c(N)ncnc43)[C@H](F)[C@@H]2O1" ; wanted: its EC50
350

--- query ---
What value of EC50 has been recorded for this entry: "CC(C)(C)C(=O)OCS[P@@]1(=O)OC[C@H]2O[C@@H](n3cnc4c(N)ncnc43)[C@H](F)[C@@H]2O[P@](=O)(SCOC(=O)C(C)(C)C)OC[C@H]2O[C@@H](n3cnc4c(N)ncnc43)[C@H](F)[C@@H]2O1"
30
